The values you see were collected from ChEMBL document CHEMBL5058577.

Tested on: HEK-293T
Assay: Multiplex assay against HEK293T
Assay type: toxicity, cell-based
Settings: human, 12 h, 1 µM, compound concentration 1 uM, replicate 2
Answer each item with its documented Population Pyknosed Nuclei (%).
Answers are plain numbers, in %.

INSERT INTO results (molecule, endpoint_result) VALUES
  ('CCOc1c2c(c(OCC)c3ncccc13)CN(c1ccc(CS(=O)(=O)NC(=O)Cc3ccccc3OC)cc1C)C2=O', 12),
  ('CCCC(CCC)C(=O)O', 15),
  ('C[C@H]1[C@H]2CC[C@H]3[C@@H]4CC=C5C[C@@H](N(C)C)CC[C@]5(C)[C@H]4CC[C@]23CN1C', 10),
  ('O=S(=O)(c1ccccc1)c1cnc2c(N3CCNCC3)cccc2c1 [INTEPIRDINE]', 17),
  ('c1cc(OCCCN2CCCCC2)ccc1CN1CCCCC1', 13);

Items follow; give Population Pyknosed Nuclei (%) for each.
1. CC1(COc2ccc3c(c2)ncn3-c2ccc3cccc(N4CCC(N)CC4)c3n2)COC1
2. N#Cc1c(N)nc(SCc2csc(-c3ccc(Cl)cc3)n2)c(C#N)c1-c1ccc(OCCO)cc1
3. Cc1ccc(C(C)(O)c2nc3ccccc3s2)c(C)c1 (stereo not given)
4. COc1ccc2c(c1)C(C(=O)N(Cc1ccc(N(C)C)cc1)c1ccc(C(C)C)cc1)CCC2.Cl (stereo not given)
5. CN(C)CCCc1cc(C(=O)Nc2ccc(-c3ccncc3)cc2)ccc1O.Cl.Cl

Response given:
1. 8
2. 12
3. 16
4. 14
5. 11

###

Exercise: state measured Population Apoptotic (%) for each of the molecules provided.
System: HEK-293T
Experiment: Multiplex assay against HEK293T
Format: toxicity, cell-based
Conditions: human, 24 h, 10 µM, compound concentration 10 uM, replicate 1
Answers are plain numbers, in %.

Please review the following examples before continuing.
INSERT INTO results (smiles, study_target, endpoint_result) VALUES
  ('CN1CCN(c2nc3cc(C(F)(F)F)ccc3n3cccc23)CC1.O=C(O)/C=C\C(=O)O.O=C(O)/C=C\C(=O)O', 'HEK-293T', 41),
  ('O=C(NCCO)c1cccc(-c2cc(Nc3ccc(OC(F)(F)F)cc3)ncn2)c1', 'HEK-293T', 39);

Challenge: Please look up its Population Apoptotic (%): CCNC1(C(N)=O)CCN(c2ncnc3c2nc(-c2ccccc2Cl)n3-c2ccc(Cl)cc2)CC1
Response given: 40

###

For each record, write down the corresponding Population Pyknosed Nuclei (%).
Test system: HEK-293T
Experiment: Multiplex assay against HEK293T
Format: toxicity, cell-based
Conditions: human, 12 h, 10 µM, compound concentration 10 uM, replicate 1
Answers are plain numbers, in %.

INSERT INTO assay_data (molecule, assay_metric, units_text, endpoint_result) VALUES
  ('CCCC(CCC)C(=O)O', 'Population Pyknosed Nuclei (%)', '%', 11),
  ('Cc1ccc(C(C)(O)c2nc3ccccc3s2)c(C)c1 (stereo unspecified)', 'Population Pyknosed Nuclei (%)', '%', 12),
  ('COc1cc(C(=O)N(CCCc2ccccc2)Cc2ccc(CC(=O)O)cc2)cc(OC)c1C', 'Population Pyknosed Nuclei (%)', '%', 15),
  ('CCNC1(C(N)=O)CCN(c2ncnc3c2nc(-c2ccccc2Cl)n3-c2ccc(Cl)cc2)CC1', 'Population Pyknosed Nuclei (%)', '%', 22),
  ('CSc1ccccc1N1CCN(CCCCCC(=O)NC2CCCc3ccccc32)CC1.Cl (stereo unspecified)', 'Population Pyknosed Nuclei (%)', '%', 22);

Lab note: next molecule to report on.
Challenge: Form field - read-out: Population Pyknosed Nuclei (%); system: HEK-293T; submitted item: Oc1c(CN2CCN(c3ccccn3)CC2)cc(Cl)c2cccnc12
Response given: 18

###

Tested on: U2OS
Assay: Multiplex assay against U2OS
Assay type: toxicity, cell-based
Conditions: human, 24 h, 10 µM, compound concentration 10 uM, replicate 2
assay_metric: Total Cell Count

Here are 2 molecules together with their reported answers.
INSERT INTO results (molecule, endpoint_result) VALUES
  ('Cc1ccc(F)cc1C(=O)Nc1ccc(C(=O)N2Cc3cccn3Cc3ccccc32)c(Cl)c1 [LIXIVAPTAN]', 119),
  ('COc1cc(NC(=O)CCN2CCC(OC(=O)Nc3ccccc3-c3ccccc3)CC2)c(Cl)cc1CNC[C@H](O)c1ccc(O)c2[nH]c(=O)ccc12 [BATEFENTEROL]', 93);

The record that follows has no Total Cell Count shown yet.
Challenge: Under U2OS: Total Cell Count value of O=C(O)Cc1ccccc1Nc1c(Cl)cccc1Cl [DICLOFENAC] ?
Response given: 153

###

Test system: Fibroblast
Test: Multiplex assay against human fibroblast
Type: toxicity, cell-based
Conditions: 24 h, 1 µM, compound concentration 1 uM, replicate 1
assay_metric: Population Fragmented Nuclei (%)
Answers are plain numbers, in %.

State the recorded Population Fragmented Nuclei (%) for every item in the following list.
1. Cc1ccccc1C(=O)Nc1ccc(C(=O)N2CCCC(N(C)C)c3ccccc32)cc1.Cl (stereo not given)
2. CC1(COc2ccc3c(c2)ncn3-c2ccc3cccc(N4CCC(N)CC4)c3n2)COC1 [CRENOLANIB]
3. CN(C)c1ccnc2sc3c(=O)n(N4CCCCCC4)cnc3c12

Response given:
[15, 29, 11]

###

Please go through the items and note down their Population Healthy Nuclei (%).
System: Fibroblast
Experiment: Multiplex assay against human fibroblast
Type: toxicity, cell-based
Conditions: 48 h, 1 µM, compound concentration 1 uM, replicate 2
One number for each entry, in %.

Use these answered entries as a reference point.
INSERT INTO results (compound, study_target, units_text, endpoint_result) VALUES
  ('CN(C)c1ccnc2sc3c(=O)n(N4CCCCCC4)cnc3c12', 'Fibroblast', '%', 49),
  ('C[C@H]1[C@H]2CC[C@H]3[C@@H]4CC=C5C[C@@H](N(C)C)CC[C@]5(C)[C@H]4CC[C@]23CN1C [CONESSINE]', 'Fibroblast', '%', 45),
  ('O=C(O)c1cc2ccccc2c(Cc2c(O)c(C(=O)O)cc3ccccc23)c1O [PAMOIC ACID]', 'Fibroblast', '%', 58);

Could you now look at the following compound, please?
Challenge: What Population Healthy Nuclei (%) value was documented for this compound, COc1cc(NC(=O)CCN2CCC(OC(=O)Nc3ccccc3-c3ccccc3)CC2)c(Cl)cc1CNC[C@H](O)c1ccc(O)c2[nH]c(=O)ccc12 [BATEFENTEROL] ?
Response given: 56

###

Please go through the items and note down their Population Mitotic Cells (%).
Tested on: U2OS
Assay: Multiplex assay against U2OS
Format: toxicity, cell-based
Conditions: human, 48 h, 1 µM, compound concentration 1 uM, replicate 2
One number for each entry, in %.

Recorded results for 3 molecules are shown here.
INSERT INTO assay_data (molecule, units_text, endpoint_result) VALUES
  ('CNC[C@H](O)c1ccc(O)c(O)c1 [EPINEPHRINE]', '%', 7),
  ('CCCn1c(=O)c2[nH]c(C3CCCC3)nc2n(CCC)c1=O', '%', 8),
  ('N[C@@]1(C(=O)O)CO[C@H]2[C@H](C(=O)O)[C@H]21', '%', 0);

Would you mind giving Population Mitotic Cells (%) for every molecule in the list below?
1. Cc1ccccc1C(=O)Nc1ccc(C(=O)N2CCCC(N(C)C)c3ccccc32)cc1.Cl (configuration not stated)
2. CCCC(CCC)C(=O)O
3. Cc1ccc(/C(=C\CN2CCCC2)c2ccccn2)cc1
4. CN(C)CCCc1cc(C(=O)Nc2ccc(-c3ccncc3)cc2)ccc1O.Cl.Cl

Response given:
16
8
23
6

###

Test system: HEK-293T
Test: Multiplex assay against HEK293T
Type: toxicity, cell-based
Conditions: human, 24 h, 1 µM, compound concentration 1 uM, replicate 2
assay_metric: Population Normal (%)
Give bare numbers, in %.

INSERT INTO measurements (molecule, endpoint_result) VALUES
  ('c1cc(OCCCN2CCCCC2)ccc1CN1CCCCC1', 96);

Record Population Normal (%) per entry; entries follow.
1. C[C@H]1[C@H]2CC[C@H]3[C@@H]4CC=C5C[C@@H](N(C)C)CC[C@]5(C)[C@H]4CC[C@]23CN1C
2. CC1(COc2ccc3c(c2)ncn3-c2ccc3cccc(N4CCC(N)CC4)c3n2)COC1
3. Cc1ccccc1C(=O)Nc1ccc(C(=O)N2CCCC(N(C)C)c3ccccc32)cc1.Cl (stereo not drawn)
4. CSc1ccccc1N1CCN(CCCCCC(=O)NC2CCCc3ccccc32)CC1.Cl (stereo not drawn)
5. CN1CCN2c3ncccc3Cc3ccccc3C2C1 (stereo not drawn)

Response given:
1. 95
2. 93
3. 95
4. 92
5. 93

Count: 2. Required value per item: Population Normal (%).
1. O=C(NCC(=O)N1CC[C@H](N[C@H]2CC[C@@](O)(c3ccc(-c4ncccn4)cn3)CC2)C1)c1cccc(C(F)(F)F)c1
2. CN(C)c1ccnc2sc3c(=O)n(N4CCCCCC4)cnc3c12

Response given:
[94, 94]
